# Tested on: Bacillus cereus
# Method Description: Antimicrobial activity against Bacillus cereus 702 Roma after 18 hrs by agar-well diffusion assay
# Format: functional
Calls of active or inactive are those of the source. The rule behind the calls is not given here.
Experimental Endpoint: inhibition zone (IZ)

Example results:
INPUT: What does the data say about its inhibition zone (IZ)? Entry: Cc1ccc(-c2nn(Cc3nnc(N(C)c4ccccc4)s3)c(=O)n2N)cc1
OUTPUT: 7 mm

INPUT: Now consider COc1ccc(Nc2nnc(Cn3nc(-c4ccc(C)cc4)n(N)c3=O)s2)cc1 and answer again.
OUTPUT: 23 mm

INPUT: Now consider Cc1ccc(-c2nn(Cc3nnc(S)n3-c3ccccc3)c(=O)n2/N=C/c2ccc(F)cc2)cc1 and answer again.
OUTPUT: 20 mm

INPUT: Now consider CSc1nnc(Cn2nc(-c3ccc(C)cc3)n(N)c2=O)n1-c1ccccc1 and answer again.
OUTPUT: inactive

INPUT: Now consider Cc1ccc(-c2nn(Cc3nnc(S)n3-c3ccc(F)cc3)c(=O)n2/N=C/c2ccc(F)cc2)cc1 and answer again.
OUTPUT: 20 mm

Others:
INPUT: What does the data say about its inhibition zone (IZ)? Entry: Cc1ccc(-c2nn(Cc3nn(CN4CCN(C)CC4)c(=S)n3-c3ccc(F)cc3)c(=O)n2/N=C/c2ccc(F)cc2)cc1
OUTPUT: 8 mm

INPUT: Now consider Cc1ccc(-c2nn(CC(=O)NNC(=S)Nc3ccc(F)cc3)c(=O)n2N)cc1 and answer again.
OUTPUT: 22 mm

INPUT: Now consider Cc1ccc(-c2nn(Cc3nnc(Nc4ccc(F)cc4)s3)c(=O)n2N)cc1 and answer again.
OUTPUT: inactive

INPUT: Now consider Cc1ccc(-c2nn(CC(=O)NNC(=S)Nc3ccccc3)c(=O)n2N)cc1 and answer again.
OUTPUT: inactive

====

# Tested on: Bacillus cereus
# Method Description: Antimicrobial activity against Bacillus cereus 702 Roma after 18 hrs by agar-well diffusion assay
# Type: functional
Calls of active or inactive are those of the source. The rule behind the calls is not given here.
Experimental Endpoint: inhibition zone (IZ)

INPUT: What does the data say about its inhibition zone (IZ)? Entry: Cc1ccc(-c2nn(Cc3nn(CNCCN4CCOCC4)c(=S)n3-c3ccccc3)c(=O)n2N)cc1
OUTPUT: inactive

INPUT: Now consider Cc1ccc(-c2nn(Cc3nnc(S)n3-c3ccc(F)cc3)c(=O)n2N)cc1 and answer again.
OUTPUT: 25 mm

INPUT: Now consider Cc1ccc(-c2nn(Cc3nnc(Nc4ccccc4)s3)c(=O)n2N)cc1 and answer again.
OUTPUT: inactive

INPUT: Now consider CCSc1nnc(Cn2nc(-c3ccc(C)cc3)n(N)c2=O)n1-c1ccc(F)cc1 and answer again.
OUTPUT: 9 mm
